B1: MMP1 (parent)
chain: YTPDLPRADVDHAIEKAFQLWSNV

Variants of: B1
Test: protein stability index of a GFP-peptide fusion (GPS, HEK-293T) (PSI 1-6); higher = more stable;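 further: lentivirally expressed fusions sorted by FACS into six bins by GFP to DsRed ratio, PSI derived from sequencing read proportions per bin multiplied by bin number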
Settings: c terminus: a fixed tail appended
protein stability index values by entry
reported-property: protein stability index

[[record]]
variant_key = "F18R"
meas_value = 1.66

[[record]]
variant_key = "V24H"
meas_value = 1.71

[[record]]
variant_key = "V24L"
meas_value = 1.65

[[record]]
variant_key = "P6R"
meas_value = 1.78

[[record]]
variant_key = "I14P"
meas_value = 2.14

[[record]]
variant_key = "V24A"
meas_value = 2.06

[[record]]
variant_key = "V24W"
meas_value = 2.39

[[record]]
variant_key = "D11A"
meas_value = 2.08

[[record]]
variant_key = "V24P"
meas_value = 2.43

[[record]]
variant_key = "D4M"
meas_value = 2.23

[[record]]
variant_key = "Q19V"
meas_value = 2.66

[[record]]
variant_key = "H12S"
meas_value = 1.58

[[record]]
variant_key = "D11L"
meas_value = 1.96

[[record]]
variant_key = "A13E"
meas_value = 2.19

[[record]]
variant_key = "K16M"
meas_value = 1.54

[[record]]
variant_key = "L5V"
meas_value = 2.89

[[record]]
variant_key = "A17S"
meas_value = 2.11

[[record]]
variant_key = "V10H"
meas_value = 1.58

[[record]]
variant_key = "L20A"
meas_value = 2.17

[[record]]
variant_key = "W21K"
meas_value = 3.4

[[record]]
variant_key = "K16N"
meas_value = 1.52

[[record]]
variant_key = "R7I"
meas_value = 1.5


Numbers sourced from the supplement of paper PMC10567573.
